molecular target: hMC4-R (Homo sapiens); assay: Competitive inhibition binding assay, 125I-NDP-α-MSH, hMC4-R membranes; conditions: 1 μM test compound; 0.4 nM 125I-NDP-α-MSH; mean of triplicate; results less than 0% reported as 0%; read-out: Inhibition at 1 μM MC4-R
Sequence (P32245 whole entry): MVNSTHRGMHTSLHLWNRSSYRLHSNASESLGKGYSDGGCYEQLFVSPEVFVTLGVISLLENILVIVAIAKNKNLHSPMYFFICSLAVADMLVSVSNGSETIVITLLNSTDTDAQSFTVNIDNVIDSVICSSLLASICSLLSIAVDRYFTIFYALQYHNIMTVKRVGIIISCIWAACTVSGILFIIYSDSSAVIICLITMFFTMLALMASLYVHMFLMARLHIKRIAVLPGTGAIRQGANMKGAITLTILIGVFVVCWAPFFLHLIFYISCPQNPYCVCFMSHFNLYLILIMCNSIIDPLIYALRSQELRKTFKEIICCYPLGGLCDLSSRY
READOUT: inhibition at 1 µM (%)

- COMPOUND: "N[C@H](Cc1ccccc1)C(=O)N1C[C@@H](Cc2ccccc2)NC[C@@H]1Cc1ccccc1 [Example 17]"
  inhibition at 1 µM (%): 6
- COMPOUND: "N[C@@H](Cc1c[nH]cn1)C(=O)N[C@H](Cc1ccccc1Cl)C(=O)N1CCN[C@H](Cc2ccc3ccccc3c2)C1 [Example 12]"
  inhibition at 1 µM (%): 0
- COMPOUND: "N[C@@H](Cc1ccccc1)C(=O)N1C[C@@H](Cc2ccccc2)NC[C@@H]1Cc1ccccc1 [Example 18]"
  inhibition at 1 µM (%): 8
- COMPOUND: "N[C@H](Cc1ccccc1Cl)C(=O)N1CCN[C@H](Cc2ccc3ccccc3c2)C1 [Example 11]"
  inhibition at 1 µM (%): 9
- COMPOUND: "N[C@H](Cc1ccc(Cl)cc1)C(=O)N1CCN[C@H](Cc2ccc3ccccc3c2)C1 [Example 19]"
  inhibition at 1 µM (%): 21
- COMPOUND: "CCCC(CCC)C(=O)N[C@H](Cc1ccc(Cl)cc1)C(=O)N1CCN[C@H](Cc2ccc3ccccc3c2)C1 [Example 28]"
  inhibition at 1 µM (%): 38
- COMPOUND: "N[C@H](Cc1ccc2ccccc2c1)C(=O)N1C[C@H](Cc2ccccc2)NC[C@H]1Cc1ccccc1 [Example 8]"
  inhibition at 1 µM (%): 0
- COMPOUND: "N[C@H](Cc1ccc2ccccc2c1)C(=O)N1C[C@H](Cc2ccccc2)NC[C@H]1Cc1ccc2ccccc2c1 [Example 3]"
  inhibition at 1 µM (%): 39

[a] CC(=O)Oc1ccccc1C(=O)N[C@H](Cc1ccc(Cl)cc1)C(=O)N1CCN[C@H](Cc2ccc3ccccc3c2)C1 [Example 27]
[b] N[C@@H](Cc1ccccc1)C(=O)N1C[C@H](Cc2ccccc2)NC[C@H]1Cc1ccccc1 [Example 9]
Problem: Endpoint returns the identifier whose inhibition at 1 µM is numerically larger, either a or b . Field: selected label. Fill in the label of the entry you choose.
Solution: a

[1] O=C(CCc1ccc(Cl)cc1Cl)N1C[C@H](Cc2ccccc2)NC[C@H]1Cc1ccc2ccccc2c1 [Example 2]
[2] O=C(N[C@H](Cc1ccc(Cl)cc1)C(=O)N1CCN[C@H](Cc2ccc3ccccc3c2)C1)[C@H]1Cc2ccccc2CN1 [Example 21]
Problem: Endpoint returns the identifier whose inhibition at 1 µM is numerically larger, either 1 or 2 . Field: selected label. Fill in the label of the entry you choose.
Solution: 2
(2: 30%, 1: 18%)

====

target: UniProt P32245; test: Competitive inhibition binding assay, 125I-NDP-α-MSH, hMC4-R membranes; conditions: 1 μM test compound; 0.4 nM 125I-NDP-α-MSH; mean of triplicate; results less than 0% reported as 0%; read-out: Inhibition at 1 μM MC4-R
READOUT: inhibition at 1 µM (%)

Solved cases below.
- STRUCTURE_SMILES_STRING: "O=C(Cc1ccccc1)N[C@H](Cc1ccc(Cl)cc1)C(=O)N1CCN[C@H](Cc2ccc3ccccc3c2)C1"
  DISPLAY_UNIT: "%"
  inhibition at 1 µM: 19
- STRUCTURE_SMILES_STRING: "N[C@@H](Cc1c[nH]cn1)C(=O)N[C@H](Cc1ccc(Cl)cc1)C(=O)N1CCN[C@H](Cc2ccc3ccccc3c2)C1"
  DISPLAY_UNIT: "%"
  inhibition at 1 µM: 25
- STRUCTURE_SMILES_STRING: "N[C@H](Cc1ccc(Cl)cc1Cl)C(=O)N1C[C@H](Cc2ccccc2)NC[C@H]1Cc1ccccc1"
  DISPLAY_UNIT: "%"
  inhibition at 1 µM: 13

[A] N[C@@H](Cc1ccccc1)C(=O)N1C[C@H](Cc2ccccc2)NC[C@H]1Cc1ccc2ccccc2c1
[B] N[C@@H](COCc1ccccc1)C(=O)N[C@H](Cc1ccccc1Cl)C(=O)N1CCN[C@H](Cc2ccc3ccccc3c2)C1
[C] CC(=O)N[C@H](Cc1ccc(Cl)cc1)C(=O)N1CCN[C@H](Cc2ccc3ccccc3c2)C1
[D] N[C@@H](COCc1ccccc1)C(=O)N[C@H](Cc1ccc(Cl)cc1)C(=O)N1CCN[C@H](Cc2ccc3ccccc3c2)C1
[E] N[C@H](Cc1ccccc1)C(=O)N1C[C@H](Cc2ccccc2)NC[C@H]1Cc1ccccc1
Problem: # ascending order, key=inhibition at 1 µM The response must list the labels following the requested ordering.
Solution: E, C, A, D, B

[a] N[C@H](Cc1ccccc1)C(=O)N1C[C@H](Cc2ccccc2)NC[C@H]1Cc1ccc2ccccc2c1
[b] O=C(CCCc1ccccc1)N[C@H](Cc1ccc(Cl)cc1)C(=O)N1CCN[C@H](Cc2ccc3ccccc3c2)C1
[c] N[C@H](Cc1ccc(Cl)cc1Cl)C(=O)N1C[C@@H](Cc2ccccc2)NC[C@@H]1Cc1ccccc1
Problem: Rank by inhibition at 1 µM (largest to smallest). The response must list the labels following the requested ordering.
Solution: a, b, c
(a: 33%, b: 20%, c: 14%)

[a] O=C(N[C@H](Cc1ccccc1Cl)C(=O)N1CCN[C@H](Cc2ccc3ccccc3c2)C1)[C@H]1Cc2ccccc2CN1
[b] N[C@H](Cc1ccc(Cl)cc1Cl)C(=O)N1C[C@H](Cc2ccccc2)NC[C@H]1Cc1ccc2ccccc2c1
Problem: // pick min by inhibition at 1 µM: a , b Field: selected label. Fill in the label of the entry you choose.
Solution: a
(a: 19%, b: 34%)
